test: chemical genetic growth profiling, strain panel (AID 1159580);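 note: tested at 20 µM; growth read once vehicle control cultures reached saturation at 30 °C; lower values mean less growth of the strain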; details: S. cerevisiae deletion strains, growth OD, locus YCR088W, strain abp1
Hit rate of the full screen: of about 5,500 compounds, about 2,000 (36%) were called active. Roughly 18% stayed inconclusive and do not appear here. Cut-off read from the data, not from the text of the source: active = normalized growth mostly below about 0.91 (no sharp cut-off); inconclusive = no clear call, values can overlap the other calls; inactive = mostly above about 0.92. This is one part of the list.
Possible outcomes: active, inactive

Compound	Discrete Label
NC(=O)NC1NC(=O)NC1=O (stereo not drawn)	inactive
COc1ccnc(CS(=O)c2nc3ccc(OC(F)F)cc3[nH]2)c1OC (stereo not drawn)	inactive
Cc1onc(-c2ccccc2)c1-c1ccc(S(N)(=O)=O)cc1	inactive
CC(=O)O[C@H]1CC[C@@]2(C)C(C[C@@H](OC(C)=O)[C@]3(C)C2CC[C@@]2(C)[C@H](c4ccoc4)OC(=O)[C@H]4O[C@]423)C1(C)C (stereo partly drawn)	inactive
CN(C)C(=O)Oc1ccc[n+](C)c1	inactive
O=C1CCCN1CC#CCN1CCCC1	inactive
C[C@@H]1CC[C@H]2C(C)(C)C3CC12CC[C@@]3(C)O (stereo partly drawn)	inactive
c1ccc2c(CC3=NCCN3)cccc2c1	inactive
Clc1ccccc1CN1CCc2sccc2C1	inactive
COc1ccc2nc(S(=O)Cc3ncc(C)c(OC)c3C)[nH]c2c1 (stereo not drawn)	inactive
CC1(C)C(=O)[C@@H]2O[C@@H]2[C@@]2(C)C1C[C@@H](O)[C@]1(C)C2CC[C@@]2(C)[C@H](c3ccoc3)OC(=O)C3OC321 (stereo partly drawn)	inactive
NCCCCC(=O)O	inactive
C[C@@H]1CC2C3CCC4=CC(=O)C=C[C@]4(C)[C@@]3(F)[C@@H](O)C[C@]2(C)[C@@]1(O)C(=O)CO (stereo partly drawn)	inactive
NC(=O)CS(=O)C(c1ccccc1)c1ccccc1 (stereo not drawn)	inactive
CN[C@@H]1C(OC2[C@H](O[C@H]3[C@H](O)[C@@H](O)[C@H](N=C(N)N)[C@@H](O)[C@@H]3N=C(N)N)OC(C)[C@]2(O)CO)OC(CO)C(O)C1O (stereo partly drawn)	inactive
O=C(O)C1CCCNC1 (stereo not drawn)	inactive
CN(C/C=C/C#CC(C)(C)C)Cc1cccc2ccccc12	active
C=NC(C(=O)NC1C(=O)N2C1SC(C)(C)C2C(=O)O)c1ccccc1 (stereo not drawn)	inactive

Where do the numbers come from? From PubChem BioAssay AID1159580.
